System: Huh7.5 cells
assayExplanation: Cell viability, CellTiter-Glo luminescent assay
experimentalSetup: deconvolution screen, singletons, 50 µM, uninfected Huh7.5
Entries annotated with measured Cell viability (fold DMSO) Mean
experimentalReadout: Cell viability (fold DMSO) Mean

- molecule: "Cn1cc(Br)c2c(N)ncnc21 [EK-0205, Cn1cc(Br)c2c(N)ncnc12]"
  experimentalReadout: "Cell viability (fold DMSO) Mean"
  number: 0.87
- molecule: "CC1(C)CN2C(=O)c3ccccc3C2S1 (stereo not drawn) [Compound 12R-0242, CC1(C)CN2C(S1)c3ccccc3C2=O]"
  experimentalReadout: "Cell viability (fold DMSO) Mean"
  number: 0.81
- molecule: "NC(=O)C1CCCNC1 (stereo not shown) [PS-3699, NC(=O)C1CCCNC1]"
  experimentalReadout: "Cell viability (fold DMSO) Mean"
  number: 0.94
- molecule: "Cc1cc(O)cc(O)n1 [PS-3153, Cc1cc(O)cc(O)n1]"
  experimentalReadout: "Cell viability (fold DMSO) Mean"
  number: 0.97
- molecule: "CN(C)C(=O)c1ccccc1Br [PS-4942, CN(C)C(=O)c1ccccc1Br]"
  experimentalReadout: "Cell viability (fold DMSO) Mean"
  number: 1.07
- molecule: "CC(N)c1cccnc1 (stereo not shown) [PS-3055, CC(N)c1cccnc1]"
  experimentalReadout: "Cell viability (fold DMSO) Mean"
  number: 0.98
- molecule: "Brc1cnc(N2CCCC2)nc1 [PS-6092, Brc1cnc(nc1)N2CCCC2]"
  experimentalReadout: "Cell viability (fold DMSO) Mean"
  number: 1.11
- molecule: "Cc1onc(-c2ccccc2)c1N [PS-4715, Cc1onc(c1N)c2ccccc2]"
  experimentalReadout: "Cell viability (fold DMSO) Mean"
  number: 1.05
- molecule: "Clc1ccc2nncn2c1 [GC-0731, Clc1ccc2nncn2c1]"
  experimentalReadout: "Cell viability (fold DMSO) Mean"
  number: 1.03
- molecule: "O=C(O)C(O)c1cc(F)cc(F)c1 (stereo not shown) [PS-6482, OC(C(=O)O)c1cc(F)cc(F)c1]"
  experimentalReadout: "Cell viability (fold DMSO) Mean"
  number: 1.08
- molecule: "Cc1cc2c(cc1C)NC(C)CC(=O)N2 (stereo not shown) [Compound 12W-0869, CC1CC(=O)Nc2cc(C)c(C)cc2N1]"
  experimentalReadout: "Cell viability (fold DMSO) Mean"
  number: 1.09
- molecule: "CC(=O)c1ccccc1-n1ccnc1 [Compound 1B-028, CC(=O)c1ccccc1n2ccnc2]"
  experimentalReadout: "Cell viability (fold DMSO) Mean"
  number: 0.78
- molecule: "CCN1C(=O)CCCc2ccccc21 [Compound 11N-585S, CCN1C(=O)CCCc2ccccc12]"
  experimentalReadout: "Cell viability (fold DMSO) Mean"
  number: 0.93
- molecule: "Clc1ccc(N2CCNCC2)nc1 [AS-5607, Clc1ccc(nc1)N2CCNCC2]"
  experimentalReadout: "Cell viability (fold DMSO) Mean"
  number: 1.13
- molecule: "O=C1CCC(c2ccccc2)=NN1 [Compound 7L-571S, O=C1CCC(=NN1)c2ccccc2]"
  experimentalReadout: "Cell viability (fold DMSO) Mean"
  number: 0.99
- molecule: "COC(=O)[C@H]1CCC(=O)N1 [AS-7023, COC(=O)[C@H]1CCC(=O)N1]"
  experimentalReadout: "Cell viability (fold DMSO) Mean"
  number: 1.19
- molecule: "CC(=O)c1cc(Br)cs1 [Compound 10X-0139, CC(=O)c1cc(Br)cs1]"
  experimentalReadout: "Cell viability (fold DMSO) Mean"
  number: 1.20
- molecule: "Cc1cc(O)cc(C)c1CO [DK-0713, Cc1cc(O)cc(C)c1CO]"
  experimentalReadout: "Cell viability (fold DMSO) Mean"
  number: 1.04
- molecule: "Clc1[nH]ccc2nccc1-2 [PS-4776, Clc1[nH]ccc2nccc12]"
  experimentalReadout: "Cell viability (fold DMSO) Mean"
  number: 1.13
- molecule: "CCCC(=O)c1cccs1 [FS-1782, CCCC(=O)c1cccs1]"
  experimentalReadout: "Cell viability (fold DMSO) Mean"
  number: 1.02
- molecule: "Nc1ccc(Cl)cc1Br [PS-3798, Nc1ccc(Cl)cc1Br]"
  experimentalReadout: "Cell viability (fold DMSO) Mean"
  number: 0.99
- molecule: "Cn1cncc1C(=O)O [AS-5483, Cn1cncc1C(=O)O]"
  experimentalReadout: "Cell viability (fold DMSO) Mean"
  number: 1.12
- molecule: "Cc1cccc(N2CCNCC2)n1 [FS-1568, Cc1cccc(n1)N2CCNCC2]"
  experimentalReadout: "Cell viability (fold DMSO) Mean"
  number: 1.22
- molecule: "COc1ccc2cc[nH]c2n1 [SS-4327, COc1ccc2cc[nH]c2n1]"
  experimentalReadout: "Cell viability (fold DMSO) Mean"
  number: 1.01
- molecule: "CNC(=O)c1cc(Br)c[nH]1 [Compound 10Y-0822, CNC(=O)c1cc(Br)c[nH]1]"
  experimentalReadout: "Cell viability (fold DMSO) Mean"
  number: 0.89
- molecule: "Nc1cncnc1 [SS-6051, Nc1cncnc1]"
  experimentalReadout: "Cell viability (fold DMSO) Mean"
  number: 0.96
- molecule: "N[C@H]1CC[C@H](O)CC1 [PS-5466, N[C@@H]1CC[C@@H](O)CC1]"
  experimentalReadout: "Cell viability (fold DMSO) Mean"
  number: 0.99
- molecule: "COc1ncc(Cl)cc1C#N [PS-5618, COc1ncc(Cl)cc1C#N]"
  experimentalReadout: "Cell viability (fold DMSO) Mean"
  number: 1.05
- molecule: "CSc1ccccc1N1CCNCC1 [SS-4074, CSc1ccccc1N2CCNCC2]"
  experimentalReadout: "Cell viability (fold DMSO) Mean"
  number: 0.92
- molecule: "C[C@@H](O)c1cccc(C(F)(F)F)c1 [PS-6325, C[C@@H](O)c1cccc(c1)C(F)(F)F]"
  experimentalReadout: "Cell viability (fold DMSO) Mean"
  number: 1.07
- molecule: "N#CCC(=O)Nc1ccccc1 [Compound 9B-046, O=C(CC#N)Nc1ccccc1]"
  experimentalReadout: "Cell viability (fold DMSO) Mean"
  number: 1.17

// provenance: paper PMC9933715
